# assay_text: viability loss in pontine glioma line – cell-based, SU-DIPG-IV, MIPE4.0, CellTiter-Glo, qHTS, dose response (AID 1347063);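 also: compound exposure lasted 48 hours before the viability readout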
# condition_notes: CellTiter-Glo ATP luminescence
Inconclusive results are not listed. Active and inactive are the calls of the source. The limit is not given here; nearly all actives have AC50 up to about 30 µM.
The reply should name one outcome from Yes for active, No for inactive

The examples below pair each entry with its known result.
| compound | assigned_category |
| --- | --- |
| N#CNC(=NCCCCCCOc1ccc(Cl)cc1)Nc1ccncc1 | Yes |
| CC(C)c1ccc(Cn2ccc3c4c(N)nc(NC5CC5)nc4ccc32)cc1 | Yes |
| CCCCCCCN(CC)CCCC(O)c1ccc(NS(C)(=O)=O)cc1 (stereo not drawn) | No |
| CN[C@H]1[C@H](O[C@@H]2[C@H](O[C@@H]3[C@@H](O)[C@@H](O)[C@@H](N=C(N)N)[C@@H](O)[C@H]3N=C(N)N)O[C@H](C)[C@@]2(O)C=O)O[C@@H](CO)[C@@H](O)[C@H]1O | No |
| COC(=O)Nc1ccc(-c2nc(N3CCOCC3)c3cnn(C4CCN(C(=O)OC)CC4)c3n2)cc1 | Yes |
| C[C@@H]1C(=O)O[C@H]2CC34[C@H]5C[C@@H](C(C)(C)C)C36[C@@H](OC(=O)[C@@H]6O)O[C@@]4(C(=O)O5)[C@]21O (stereo partly drawn) | No |
| C=C1CCC2[C@](C)(CO)C(O)CC[C@]2(C)C1C/C=C1/C(=O)OCC1O (stereo partly drawn) | No |
| C[C@H](NC(=O)/C(C#N)=C/c1cccc(Br)n1)c1ccccc1 | Yes |
| COc1cc2nccc(Oc3ccc(NC(=O)NC4CC4)c(Cl)c3)c2cc1C(N)=O | Yes |
| CO[C@H]1/C=C/O[C@@]2(C)Oc3c(C)c(O)c4c(O)c(c(/C=N\N5CCN(C6CCCC6)CC5)c(O)c4c3C2=O)NC(=O)/C(C)=C\C=C\[C@H](C)[C@H](O)[C@@H](C)[C@@H](O)[C@@H](C)[C@H](OC(C)=O)[C@@H]1C | Yes |

IN: Look up the recorded call for OCc1ccc(-c2ccc(-c3ccc(CO)s3)o2)s1 in this test.
OUT: Yes

IN: Assay outcome for CCOc1cc2ncc(C#N)c(Nc3ccc(OCc4ccccn4)c(Cl)c3)c2cc1NC(=O)/C=C/CN(C)C : what was it?
OUT: Yes

###

# assay_text: viability loss in pontine glioma line – cell-based, SU-DIPG-XVII, MIPE5.0, CellTiter-Glo, qHTS, dose response (AID 1347060);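 as to AC50: cells exposed to compound for 48 hours before viability readout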
# condition_notes: CellTiter-Glo ATP luminescence
Records with an inconclusive call do not appear. Active and inactive are the calls of the source. The limit is not given here; nearly all actives have AC50 up to about 26 µM.
Pick from label 1 (active), label 0 (inactive) when you respond.

Previously resolved entries follow.
| compound_structure_string | assigned_category |
| --- | --- |
| Cc1cc(C(=O)N2CCN(c3cccc(Cl)c3)CC2)n(-c2ccccc2)n1 | label 1 |
| CCc1c(C(=O)NNC(=O)[C@@H](O)c2cc(F)cc(F)c2)ccc(O)c1C | label 0 |
| CN(C)C/C=C/C(=O)Nc1ccc(C(=O)Nc2cccc(Nc3ncc(Cl)c(-c4c[nH]c5ccccc45)n3)c2)cc1 | label 1 |
| CC(=O)Nc1nc(C)c(-c2ccc(Cl)c(S(=O)(=O)NCCO)c2)s1 | label 1 |
| NC(=O)c1nc(F)c[nH]c1=O | label 0 |

IN: Outcome? O=C(/C=C/c1ccc(Cl)cc1)N1CCC2(CC1)CN(Cc1ccc(Cl)c(Cl)c1)C(=O)O2
OUT: label 1

IN: Entry COC(=O)[C@H]1[C@@H](O)[C@@]2(O)c3c(OC)cc(O[C@@H]4O[C@@H]([C@@H](O)CO)CO[C@H]4OC)cc3O[C@@]2(c2ccc(OC)cc2)[C@@H]1c1ccccc1 : call = ?
OUT: label 1
